Subject Of Test: GPR139 (Homo sapiens, UniProt Q6DWJ6)
Construct: host or cells: CHO-k1
Assay Details: Phospho-ERK1/2 HTRF assay in CHO-GPR139 cells
Type: cell-based
Measurement Context: ERK phosphorylation; expressed relative to FBS positive control
Listing: Emax ± SEM of selected compounds
Give the figure only, with no unit attached.

Would you mind telling me what Emax ± SEM value was observed for CC(C)COCCCNC(=O)NC(C)c1ccc(Cl)cc1Cl (centres unmarked) ? 64.38

// query Emax ± SEM value for entry CC1(c2ccc3c(c2)OCO3)NC(=O)N(CC(=O)N2CCc3ccccc32)C1=O (centres unmarked) 78.70

Query (compound): Cc1ccc(C(C)NC(=O)NCC(=O)NCC2CC2)cc1F (centres unmarked) ; field requested: Emax ± SEM 79.10

Record request: Emax ± SEM value, item COc1cc(OC)cc(C(=O)NN2C(=O)NC(C)(c3ccccc3)C2=O)c1 (centres unmarked) 69.37

Entry under review: C=CCN(CC=C)C(=O)CN1C(=O)NC(C)(c2ccc3c(c2)OCCO3)C1=O (centres unmarked) . Reported Emax ± SEM? 62.32

---

pEC50 ± S.E.M.: recorded values
Subject Of Test: GPR139 (Homo sapiens)
Construct: host or cells: CHO-k1
Assay Details: Fluo-4 calcium mobilization assay, agonist mode, concentration-response curves in CHO-GPR139 cells
Format: cell-based
Measurement Context: CHO-GPR139 cells
Just the number, please.

Compound | pEC50 ± S.E.M.
CC1CC(C)CN(C(=O)CN2C(=O)NC(C)(c3cccc4ccccc34)C2=O)C1 (stereo not drawn) [AC186] | 6.39

Fill blank: measured pEC50 ± S.E.M. of the compound Cc1ccc(C(=O)CN2C(=O)NC(C)(c3ccc4c(c3)OCO4)C2=O)cc1 (stereo not drawn) [AC136] is ____. 6.01

What value of measured pEC50 ± S.E.M. is listed for C=CCN(CC=C)C(=O)CN1C(=O)NC(C)(c2ccc3c(c2)OCCO3)C1=O (stereo not drawn) [AC194] ? 6.68

Request the reported pEC50 ± S.E.M. associated with CC1(c2cccc3ccccc23)NC(=O)N(CC(=O)NCCc2ccccc2)C1=O (stereo not drawn) [AC243] 6.45

Entry under review: CC1(c2ccc3c(c2)OCCO3)NC(=O)N(CC(=O)c2ccc[nH]2)C1=O (stereo not drawn) [AC191] . Reported pEC50 ± S.E.M.? 6.46

Which measured pEC50 ± S.E.M. value corresponds to CC(C)OCCCNC(=O)NC(C)c1cccc(Cl)c1 (stereo not drawn) [AC76] ? 6.03

Dear colleague, I am looking for the recorded pEC50 ± S.E.M. of the following compound: COc1cc(OC)cc(C(=O)NN2C(=O)NC(C)(c3ccccc3)C2=O)c1 (stereo not drawn) [AC224] 7.03

Which pEC50 ± S.E.M. is reported for this compound? COc1ccc(C(=O)CN2C(=O)NC(C)(c3ccc4c(c3)OCO4)C2=O)cc1OC (stereo not drawn) [AC138] 6.10

What value of pEC50 ± S.E.M. has been recorded for this entry: CC(=O)c1c(C)[nH]c(C(=O)CN2C(=O)NC(C)(c3ccc4c(c3)OCCO4)C2=O)c1C (stereo not drawn) [AC123] 6.13

---

Overview of reported pEC50 ± SEM across a group of compounds:
Subject Of Test: GPR139 (Homo sapiens, UniProt Q6DWJ6)
Construct: host or cells: CHO-k1
Sequence (Q6DWJ6 1-353): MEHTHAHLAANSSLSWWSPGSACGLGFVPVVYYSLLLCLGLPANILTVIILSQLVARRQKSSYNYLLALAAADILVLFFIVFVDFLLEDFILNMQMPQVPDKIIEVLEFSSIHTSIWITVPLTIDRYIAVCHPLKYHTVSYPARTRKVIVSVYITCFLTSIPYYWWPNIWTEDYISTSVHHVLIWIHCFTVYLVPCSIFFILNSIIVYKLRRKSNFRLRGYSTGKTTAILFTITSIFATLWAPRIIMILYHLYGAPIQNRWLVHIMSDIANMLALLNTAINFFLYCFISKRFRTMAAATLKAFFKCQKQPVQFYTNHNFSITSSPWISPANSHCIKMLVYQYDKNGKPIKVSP
Assay Details: Phospho-ERK1/2 HTRF assay in CHO-GPR139 cells
Assay type: cell-based
Measurement Context: ERK phosphorylation, CHO-GPR139 cells
Respond with the number and no other words.

Compound | pEC50 ± SEM
C=CCN(CC=C)C(=O)CN1C(=O)NC(C)(c2ccc3c(c2)OCCO3)C1=O (centres unmarked) [AC194] | 7.41
Cc1ccc(C(C)NC(=O)NCC(=O)NCC2CC2)cc1F (centres unmarked) [AC177] | 7.65
CC1(c2ccc3c(c2)OCO3)NC(=O)N(CC(=O)N2CCc3ccccc32)C1=O (centres unmarked) [AC197] | 7.03
CC(C)COCCCNC(=O)NC(C)c1ccc(Cl)cc1Cl (centres unmarked) [AC183] | 7.41

Next item in the queue.
Find pEC50 ± SEM (GPR139 (Homo sapiens, UniProt Q6DWJ6)) for the entry COc1cc(OC)cc(C(=O)NN2C(=O)NC(C)(c3ccccc3)C2=O)c1 (centres unmarked) [AC224] 7.51
